Source: PubChem BioAssay (NCATS)

target.system: Retinaldehyde dehydrogenase 3 (Homo sapiens) (UniProt P47895)
protocol.description: qHTS for Inhibitors of the Aldehyde Dehydrogenase Family (ALDH1A3) Primary screen (AID 2061315);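 also: plate controls were DMSO vehicle for no effect and reference inhibitor for full effect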
condition.info: ALDH inhibition qHTS; series mostly up to 56 µM
Inconclusive results are not listed. The source made the active and inactive calls. Calls follow the shape of the dose curve; as a rule, active = well fitted inhibition curve with a large enough effect; inconclusive = small, poorly fitted or top-dose-only effect; inactive = no such curve, though single readings can be large or run the other way.
metric.name: activity change, negative = inhibition

compound: COC(=O)N[C@@H](C)CNc1nccc(-c2cn(C(C)C)nc2-c2cc(Cl)cc(NS(C)(=O)=O)c2F)n1
activity change, negative = inhibition: inactive

compound: CCCCNc1nc(C)nc2c1nc(-c1ccccc1)n2CCN(C)C
activity change, negative = inhibition: inactive

compound: O=C(Nc1cc(C(F)(F)F)ccc1Cl)[C@H](O)CCc1ccccc1
activity change, negative = inhibition: inactive

compound: Cc1c(C(=O)NCC2CCCO2)[nH]c2c1C(=O)CC(c1ccco1)C2 (configuration not stated)
activity change, negative = inhibition: inactive

Lookup: Return value of activity change, negative = inhibition for input CCCn1c(-c2ccc(F)cc2)nc2c(NC(C)CN(C)C)nc(C)nc21 (configuration not stated) , no commentary.
Found: inactive

Lookup: Return value of activity change, negative = inhibition for input Cn1nnnc1Sc1ncnc2scc(-c3cccc(Cl)c3)c12 , no commentary.
Found: inactive

Lookup: Return value of activity change, negative = inhibition for input Clc1nc(CN2CCOCC2)nc2sc3c(c12)CCC3 , no commentary.
Found: inactive

Lookup: Return value of activity change, negative = inhibition for input Cc1ccc(S(=O)(=O)Nc2ccccc2Nc2nc(-c3ccccc3)cs2)cc1 , no commentary.
Found: inactive

Lookup: Return value of activity change, negative = inhibition for input Cc1cc(C)nc(NC(=S)N2CC3CN(c4ccc(Cl)cc4C(F)(F)F)CC3C2)c1 (configuration not stated) , no commentary.
Found: inactive

Lookup: Return value of activity change, negative = inhibition for input COc1cc(NS(=O)(=O)c2ccc(C)cc2)c(C(=O)Nc2nc(-c3ccccc3)cs2)cc1OC , no commentary.
Found: inactive

Lookup: Return value of activity change, negative = inhibition for input Cc1ccc(C[C@H](C(=O)O)N2C(=O)c3ccc(C(=O)O)cc3C2=O)cc1 , no commentary.
Found: inactive

Lookup: Return value of activity change, negative = inhibition for input COc1ccc(C2=Nn3c(nnc3-c3ccccc3C(F)(F)F)SC2)cc1OC1CCOC1 (configuration not stated) , no commentary.
Found: inactive

Lookup: Return value of activity change, negative = inhibition for input O=C1c2ccccc2C(=O)N1c1ccccc1O , no commentary.
Found: inactive

Lookup: Return value of activity change, negative = inhibition for input O=C(Nc1nnc(-c2ccncc2)s1)NC12CC3CC(CC(C3)C1)C2 , no commentary.
Found: inactive

Lookup: Return value of activity change, negative = inhibition for input Cc1ccc(NS(=O)(=O)c2cc3c(cc2Br)NC(=O)CO3)cc1C , no commentary.
Found: inactive

Lookup: Return value of activity change, negative = inhibition for input O=C(CNC(=O)c1ccc(Cl)cc1Cl)OC(C(=O)Nc1cc(C(F)(F)F)ccc1Cl)c1ccccc1 (configuration not stated) , no commentary.
Found: inactive

====

target.system: Retinaldehyde dehydrogenase 3 (Homo sapiens) (UniProt P47895)
protocol.description: qHTS for Inhibitors of the Aldehyde Dehydrogenase Family (ALDH1A3) Primary screen (AID 2061315);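 also: plate controls were DMSO vehicle for no effect and reference inhibitor for full effect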
condition.info: ALDH inhibition qHTS; series mostly up to 56 µM
Records with an inconclusive call do not appear. Activity calls are given as the source filed them. Calls come from the whole dose curve; as a rule, active = well fitted inhibition curve with a large enough effect; inconclusive = small, poorly fitted or top-dose-only effect; inactive = no such curve, though single readings can be large or run the other way.
metric.name: activity change, negative = inhibition

The following compounds have reported results that may help.
compound: C[C@H](C/C=C/C(C)(C)O)[C@H]1CC[C@@]2(C)[C@@H]3[C@@H](O[C@@H]4O[C@H](CO)[C@@H](O)[C@H](O)[C@H]4O)C=C4C(CC[C@H](O)C4(C)C)[C@]3(C=O)CC[C@]12C (stereo not given in full)
activity change, negative = inhibition: inactive

compound: COc1cccc(C2c3c(ncn(-c4ccncc4)c3=N)Oc3ccc4ccccc4c32)c1 (stereo not given)
activity change, negative = inhibition: inactive

compound: O=C1CCCC2=C1C(c1ncccc1C(F)(F)F)N=C(Nc1nc3ccccc3o1)N2 (stereo not given)
activity change, negative = inhibition: inactive

compound: Cc1cc(C=CC#N)cc(C)c1Nc1nc(Nc2ccc3scnc3c2)c2[nH]cnc2n1
activity change, negative = inhibition: inactive

compound: Cc1ccc(CN(C)c2nc(-c3ccccc3C(F)(F)F)nc3ccccc23)cc1
activity change, negative = inhibition: inactive

compound: COc1cc2c(cc1OC)CN(C(=O)/C=C/c1c(-c3ccccc3)n(C)c3ncccc13)CC2
activity change, negative = inhibition: inactive

compound: O=C(Nc1ccc2ccccc2c1)Nc1nnc(-c2ccc(O)cc2)s1
activity change, negative = inhibition: inactive

compound: O=C(Nc1ccc(-c2nc3ccccc3[nH]2)cc1)c1ccc(C(F)(F)F)cc1
activity change, negative = inhibition: inactive

compound: CNCc1ccc(-c2cc(-c3nc(-c4ccc(S(=O)(=O)C(C)C)cc4)cnc3N)on2)cc1
activity change, negative = inhibition: inactive

compound: c1cncc(-c2ccc3ncnc(NCc4ccc5c(c4)OCO5)c3c2)c1
activity change, negative = inhibition: inactive

Lookup: Return value of activity change, negative = inhibition for input Cc1cc(C)nc(NC(=S)N2CCN(c3cnc4nccn4c3)CC2)c1 , no commentary.
Found: inactive

Lookup: Return value of activity change, negative = inhibition for input CCN(Cc1ccccc1)C(=O)Cn1c(=O)n(C)c2cnc(-c3ccccc3)nc21 , no commentary.
Found: inactive

Lookup: Return value of activity change, negative = inhibition for input Cc1ccc(S(=O)(=O)Nc2cnccc2C(=O)Nc2cccc3ccccc23)cc1 , no commentary.
Found: inactive

Lookup: Return value of activity change, negative = inhibition for input COc1ccccc1NS(=O)(=O)c1ccc2c(c1)CCC(=O)N2 , no commentary.
Found: inactive

Lookup: Return value of activity change, negative = inhibition for input Cc1ccc(NC(=O)c2cnn3c(-c4ccccc4)cc(C)nc23)cc1 , no commentary.
Found: inactive

Lookup: Return value of activity change, negative = inhibition for input Cc1cc(-c2cnc(N)c3c(-c4ccc5scnc5c4)csc23)n(C)n1 , no commentary.
Found: inactive

Lookup: Return value of activity change, negative = inhibition for input Cc1cc2c(s1)c1cnn(Cc3ccc(C(F)(F)F)cc3F)c(=O)c1n2C , no commentary.
Found: inactive

====

protocol.description: BET inhibitor-based combinations targeting novel dependencies in MECOM-rearranged (r) AML: SET-2 cell line (AID 2202231);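 also: plate controls were DMSO treated cells for no effect and wells without cells for full effect; nearly all actives have a fitted effect of over 35% in size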
condition.info: SET-2 AML cells viability, CellTiter-Glo luminescence, 48 h; stronger effect = lower value, concentration not given here
Results filed as inconclusive are left out.
metric.name: viability (%)
Form entry: value (%) — number only.

structure.smiles: O=C(O)CCNc1cc(N2CCc3ccccc3CC2)nc(-c2cccnc2)n1
unit.tag: %
assay.value: 116
//
structure.smiles: CCn1c(=O)c(-c2ccc(-c3cncs3)cc2Cl)cc2cnc(Nc3ccc(N4CCN(C)CC4)cc3)nc21
unit.tag: %
assay.value: 104
//
structure.smiles: CN(C)c1ccccc1CN1CCCN(Cc2ccccc2N(C)C)C1c1ccncc1
unit.tag: %
assay.value: 99.7
//
structure.smiles: COc1cc(C)c(/C=C/C(C)=C/C=C/C(C)=C/C(=O)O)c(C)c1C
unit.tag: %
assay.value: 101

Would you kindly look at the next entry?
Lookup: Return value of viability for input Cc1c(-c2cnccn2)ssc1=S , no commentary.
Found: 94.7

====

protocol.description: BET inhibitor-based combinations targeting novel dependencies in MECOM-rearranged (r) AML: AML-191 cell line (AID 2202236; also: nearly all actives have a fitted effect of over 35% in size)
condition.info: AML-191 viability, CellTiter-Glo luminescence, 48 h; series mostly up to 46 µM
Inconclusive results are not listed. Activity calls are given as the source filed them. The call rests on the fitted dose curve; in most records, active means well fitted inhibition curve with a large enough effect; inconclusive means small, poorly fitted or top-dose-only effect; inactive means flat fitted curve, though single readings scatter.
Your reply should match one of these outcome classes. active, inactive

Previously resolved entries follow.
molecule: COc1ccc2nc(S(=O)Cc3ncc(C)c(OC)c3C)[nH]c2c1 (centres undefined)
category.label: inactive

molecule: CCCN(CCC)C(=O)C1=Cc2ccc(-c3ccc(C(=O)N4CCCC4)cc3)cc2N=C(N)C1
category.label: active

Lookup: // return assay outcome for CC(=O)CC(c1ccccc1)c1c(O)c2ccccc2oc1=O (centres undefined)
Found: inactive

Lookup: // return assay outcome for O=C(/C=C\n1cnc(-c2cc(C(F)(F)F)cc(C(F)(F)F)c2)n1)NNc1ccccn1
Found: active

Lookup: // return assay outcome for CN1C(N)=N[C@](C)(c2cc(NC(=O)c3ccc(F)cn3)ccc2F)CS1(=O)=O
Found: inactive

Lookup: // return assay outcome for Cc1[nH]c(/C=C2\C(=O)Nc3ccc(S(=O)(=O)Cc4c(Cl)cccc4Cl)cc32)c(C)c1C(=O)N1CCC[C@@H]1CN1CCCC1
Found: active

Lookup: // return assay outcome for O=C1NC(=O)/C(=C/c2ccc3nccc(-c4ccncc4)c3c2)S1
Found: active

Lookup: // return assay outcome for C[C@]12CC[C@H](O)CC1=CC[C@@H]1[C@@H]2CC[C@]2(C)C(c3cccnc3)=CC[C@@H]12
Found: inactive

Lookup: // return assay outcome for COc1cc2c(cc1OC(C)C)[C@H](c1ccc(Cl)cc1)N(c1ccc(N(C)CC3CCC(N4CCN(C)C(=O)C4)CC3)cc1)C(=O)C2 (some centres undefined)
Found: active
